Where these numbers come from: patent US20160185837A1

# testedOn: T1, rat GLP-1 receptor (rGLP-1r) (Rattus norvegicus, UniProt P32301)
# T1 construct: expressed in transfected cells; host or cells: HEK293s or CHO cells
# T1 sequence (P32301 22-463): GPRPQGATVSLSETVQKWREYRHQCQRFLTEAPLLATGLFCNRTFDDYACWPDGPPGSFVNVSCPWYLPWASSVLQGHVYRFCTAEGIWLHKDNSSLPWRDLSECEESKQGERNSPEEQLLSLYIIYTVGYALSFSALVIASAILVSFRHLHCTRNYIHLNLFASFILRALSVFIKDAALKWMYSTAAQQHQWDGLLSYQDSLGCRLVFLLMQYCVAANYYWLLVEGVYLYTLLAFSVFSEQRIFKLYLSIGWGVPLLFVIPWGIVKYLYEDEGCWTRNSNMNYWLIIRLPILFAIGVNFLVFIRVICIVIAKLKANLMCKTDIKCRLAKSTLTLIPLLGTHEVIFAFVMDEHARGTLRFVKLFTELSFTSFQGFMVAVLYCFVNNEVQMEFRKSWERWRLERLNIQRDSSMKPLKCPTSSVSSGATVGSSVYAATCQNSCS
# methodSummary: BSA-cAMP assay, cells expressing rat GLP-1 receptor
# Assay type: cell-based
# condition: BSA-cAMP assay; read-out: cAMP activity rGLP1r (EC50)
metricName: EC50 (nM)
The response must be a number in nM with no trailing unit.

Example molecules with recorded EC50:
>  <molecule>
IP247: Fc fusion, IgG1-TM, SEQ ID NO:117; agonist peptide YSEGTFTSDYSKLLEKIHQQLFIEWLVKGP (protein, also: Fc fusion, IgG1-TM, agonist peptide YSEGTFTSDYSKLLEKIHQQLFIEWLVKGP) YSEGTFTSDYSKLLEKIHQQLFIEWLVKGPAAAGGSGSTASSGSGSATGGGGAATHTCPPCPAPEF

>  <unitOfMeasurement>
nM

>  <EC50>
11

$$$$
>  <molecule>
IP170 (protein, /note=“Description of Artificial Sequence Synthetic Peptide-linker-hinge polypeptide”) YSEGTFTSDVSSYMERQAIDEFIAWLLKGGAAAGGSGSTASSGSGSATGGGGAATHTCPPCPAPEF

>  <unitOfMeasurement>
nM

>  <EC50>
0.06

$$$$

Prompt: So what's the measured EC50 for this one? IP246: Fc fusion, IgG1-TM, SEQ ID NO:116; agonist peptide YSEGTFTSDYSKLLEGQAAKLFIEWLVKGP (protein, also: Fc fusion, IgG1-TM, agonist peptide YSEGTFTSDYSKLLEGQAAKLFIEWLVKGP) YSEGTFTSDYSKLLEGQAAKLFIEWLVKGPAAAGGSGSTASSGSGSATGGGGAATHTCPPCPAPEF
Response: 0.072

Prompt: What do you have for IP226 (protein, /note=“Description of Artificial Sequence Synthetic Peptide-linker-hinge polypeptide”) YSEGTFTSDVSKLLERQAIDEFIAWLLKGGAAAGGSGSTASSGSGSATGGGGAATHTCPPCPAPEF ?
Response: 0.061
